As shown below, each of these binders has a reported Mean % WT Binding value.
# target_desc: human CD33 R286A (human, UniProt P20138 18-364)
# Sequence (P20138 18-364 R286A limits assumed): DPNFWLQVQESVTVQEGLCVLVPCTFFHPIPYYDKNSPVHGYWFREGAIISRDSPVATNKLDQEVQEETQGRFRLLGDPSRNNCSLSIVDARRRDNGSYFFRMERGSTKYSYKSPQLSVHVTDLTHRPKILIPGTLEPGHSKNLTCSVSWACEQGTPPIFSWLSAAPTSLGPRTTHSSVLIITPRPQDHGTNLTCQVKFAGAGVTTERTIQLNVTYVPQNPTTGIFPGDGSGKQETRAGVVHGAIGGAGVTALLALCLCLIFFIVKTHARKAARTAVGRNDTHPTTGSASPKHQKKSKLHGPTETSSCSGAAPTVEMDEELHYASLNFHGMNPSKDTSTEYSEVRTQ
# test_protocol: alanine scan, flow cytometry, HEK293-T;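 further: antibody binding to each alanine-substituted CD33 mutant expressed transiently in HEK293-T, read as fluorescence minus background, mean of duplicates, relative to wild-type CD33 set as 100%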
reported_endpoint: Mean % WT Binding (% WT binding)

>>> readout_number("Refmab #2 (antibody, V domains shown, The alanine scan used IgG or Fab) VH: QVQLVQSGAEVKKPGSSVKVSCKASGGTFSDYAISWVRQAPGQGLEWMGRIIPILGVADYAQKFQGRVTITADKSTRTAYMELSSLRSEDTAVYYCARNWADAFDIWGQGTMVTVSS VL: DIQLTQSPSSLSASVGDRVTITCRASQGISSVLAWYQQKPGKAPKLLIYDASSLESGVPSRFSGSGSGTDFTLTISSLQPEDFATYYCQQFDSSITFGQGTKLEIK")
117
>>> readout_number("Refmab #3 (antibody, V domains shown, The alanine scan used IgG or Fab) VH: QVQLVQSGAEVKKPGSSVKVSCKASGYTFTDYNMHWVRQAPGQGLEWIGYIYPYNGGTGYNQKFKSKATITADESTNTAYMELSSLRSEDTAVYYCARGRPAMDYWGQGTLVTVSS VL: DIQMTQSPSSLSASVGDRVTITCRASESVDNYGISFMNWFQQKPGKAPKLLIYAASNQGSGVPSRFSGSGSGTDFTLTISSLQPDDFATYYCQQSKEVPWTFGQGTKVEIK")
92.4
>>> readout_number("Refmab #1 (antibody, V domains shown, The alanine scan used IgG or Fab; also called hP67.6) VH: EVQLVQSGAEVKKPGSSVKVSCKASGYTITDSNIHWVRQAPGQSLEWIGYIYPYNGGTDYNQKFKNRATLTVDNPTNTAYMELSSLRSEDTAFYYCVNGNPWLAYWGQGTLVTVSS VL: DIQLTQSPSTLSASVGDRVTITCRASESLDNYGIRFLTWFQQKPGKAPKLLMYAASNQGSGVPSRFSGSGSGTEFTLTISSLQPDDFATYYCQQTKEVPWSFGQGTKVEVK")
96.3
